The reported measurements were obtained from patent US12493040B2.

test system: RNAi-treated eri-1 (mg366) nematodes; assay: RNAi screening of olfactory receptor genes: chemotaxis assay of RNAi-treated nematodes to odorants; type: in vivo, Caenorhabditis elegans; settings: srh-220 RNAi-treated nematodes; low concentration of attractant

{"STRUCTURE STRING": "O=Cc1ccccc1", "chemotaxis index": 0.61}
{"STRUCTURE STRING": "CCC(=O)C(C)=O", "chemotaxis index": 0.67}
{"STRUCTURE STRING": "c1cnccn1", "chemotaxis index": 0.40}
{"STRUCTURE STRING": "Cc1nc(C)c(C)s1", "chemotaxis index": 0.52}
{"STRUCTURE STRING": "CC(C)CCO", "chemotaxis index": 0.81}
{"STRUCTURE STRING": "CCC(C)=O", "chemotaxis index": 0.81}

---

Test system: RNAi-treated eri-1 (mg366) nematodes
Assay: RNAi screening of olfactory receptor genes: chemotaxis assay of RNAi-treated nematodes to odorants
Assay type: in vivo, Caenorhabditis elegans
Details: srh-129 RNAi-treated nematodes; low concentration of attractant
Experimental: The RNAi assay was carried out by performing an RNAi method involving the feeding (feeding RNAi method) of eri-1 (mg366) (19), using an Ahringer library (37). Nine adult eri-1 mutants were placed on an NGM plate containing isopropyl 1-D-1-thiogalactopyranoside (0.19 g/L), ampicillin (60 mg/L), and Escherichia coli (E. coli), and were then cultured for 4 days. […] The z score and a control value in each single test from 2SD were calculated in all days (Table 3) or every day. […]
ASSAY ENDPOINT: chemotaxis index

{"STRUCTURE STRING": "CCC(=O)C(C)=O", "TARGET OR SYSTEM": "RNAi-treated eri-1 (mg366) nematodes", "ASSAY VALUE": 0.15}
{"STRUCTURE STRING": "c1cnccn1", "TARGET OR SYSTEM": "RNAi-treated eri-1 (mg366) nematodes", "ASSAY VALUE": 0.71}
{"STRUCTURE STRING": "CCC(C)=O", "TARGET OR SYSTEM": "RNAi-treated eri-1 (mg366) nematodes", "ASSAY VALUE": 0.63}
{"STRUCTURE STRING": "Cc1nc(C)c(C)s1", "TARGET OR SYSTEM": "RNAi-treated eri-1 (mg366) nematodes", "ASSAY VALUE": 0.69}

---

system: RNAi-treated eri-1 (mg366) nematodes; test: RNAi screening of olfactory receptor genes: chemotaxis assay of RNAi-treated nematodes to odorants; assay type: in vivo, Caenorhabditis elegans; conditions: srh-281 RNAi-treated nematodes; low concentration of attractant
Mark 1.0 for reported chemotaxis index of 0.5 or greater; mark 0.0 for anything smaller.

{"STRUCTURE STRING": "c1cnccn1", "QUALITATIVE LABEL": 0.0}
{"STRUCTURE STRING": "CCC(=O)C(C)=O", "QUALITATIVE LABEL": 1.0}
{"STRUCTURE STRING": "Cc1nc(C)c(C)s1", "QUALITATIVE LABEL": 1.0}
{"STRUCTURE STRING": "O=Cc1ccccc1", "QUALITATIVE LABEL": 0.0}

---

Below, each entry is listed alongside its reported chemotaxis index.
tested on: RNAi-treated eri-1 (mg366) nematodes; test: RNAi screening of olfactory receptor genes: chemotaxis assay of RNAi-treated nematodes to odorants; assay type: in vivo, Caenorhabditis elegans; conditions: srh-80 RNAi-treated nematodes; repellent or high concentration of attractant

{"STRUCTURE STRING": "CC(C)CCO", "chemotaxis index": "−0.31"}
{"STRUCTURE STRING": "CCCCCCCCO", "chemotaxis index": "−0.39"}
{"STRUCTURE STRING": "CC(=O)C(C)=O", "chemotaxis index": "−0.48"}
{"STRUCTURE STRING": "CCCCCCCC(C)=O", "chemotaxis index": "−0.81"}
{"STRUCTURE STRING": "O=Cc1ccccc1", "chemotaxis index": "−0.87"}
